Tested on: PPARg:RXRa IVT, anti-PPARg (NR concentration 270 nM, RXRa partner concentration 90 nM)
TEST_NAME: PBM binding z-score (relative to random genomic background probes); higher = stronger binding; sequences stand for … in GC…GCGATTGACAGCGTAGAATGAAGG
MEASURED_PROPERTY: PBM binding z-score
One number for each entry.

In the examples that follow, each entry is paired with its recorded PBM binding z-score.
{"RESIDUE_SEQUENCE": "ATATGTAGGTTACATCGGGGTCATTCAGGCTATG", "STUDY_SYSTEM": "PPARg:RXRa IVT, anti-PPARg (NR concentration 270 nM, RXRa partner concentration 90 nM)", "PBM binding z-score": 7.63}
{"RESIDUE_SEQUENCE": "CGAGCTAGGTCACCAGGACAGTGAAGAGGTTGGA", "STUDY_SYSTEM": "PPARg:RXRa IVT, anti-PPARg (NR concentration 270 nM, RXRa partner concentration 90 nM)", "PBM binding z-score": 4.43}
{"RESIDUE_SEQUENCE": "TCGAGTAGGTAACGGGGGCATTCAGGGATGAAGA", "STUDY_SYSTEM": "PPARg:RXRa IVT, anti-PPARg (NR concentration 270 nM, RXRa partner concentration 90 nM)", "PBM binding z-score": 5.38}
{"RESIDUE_SEQUENCE": "ATATGTAGGTTACGTCCGGGTCATTCAGGCTATG", "STUDY_SYSTEM": "PPARg:RXRa IVT, anti-PPARg (NR concentration 270 nM, RXRa partner concentration 90 nM)", "PBM binding z-score": 7.47}
{"RESIDUE_SEQUENCE": "ATATGTAGGTTATGGTCATTCAGAAAGTAGGGAA", "STUDY_SYSTEM": "PPARg:RXRa IVT, anti-PPARg (NR concentration 270 nM, RXRa partner concentration 90 nM)", "PBM binding z-score": 6.63}

Please examine the following record next.
Query string: Give its PBM binding z-score value. Item: `CGTCAAAGTTCAACTAAGGTAACGTATAGCACGC`
Result string: 2.49
